Assign pEC50 to each entry below.
Molecular target: T1, recombinant human CTLA4 protein with human IgG1 Fc tag at the C-terminus (Acro biosystems, Cat#CT4-H5255) (human, UniProt P16410 37-162)
T1 construct: bought protein; also called human CTLA4-Fc; CTLA4-Fc; not shown: human IgG1 Fc tag at the C-terminus
T1 sequence (looked up): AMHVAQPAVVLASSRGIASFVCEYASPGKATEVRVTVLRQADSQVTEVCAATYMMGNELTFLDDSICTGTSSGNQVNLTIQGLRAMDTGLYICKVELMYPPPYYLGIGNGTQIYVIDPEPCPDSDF
Test: capture ELISA: antibody captured on anti-mouse IgG F(ab')2 coated plate, biotin human CTLA4-Fc 26 ng/ml, streptavidin-HRP, OD(450-630)
// pEC50: -log10(molar conc.)

Q) Request the reported pEC50 associated with mouse anti-CTLA4 monoclonal antibody D1B6 (antibody, V domains shown, mouse mAb purified from hybridoma supernatant) VH: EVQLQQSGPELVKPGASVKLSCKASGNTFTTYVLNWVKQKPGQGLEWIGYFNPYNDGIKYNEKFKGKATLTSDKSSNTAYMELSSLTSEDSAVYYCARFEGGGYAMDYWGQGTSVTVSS VL: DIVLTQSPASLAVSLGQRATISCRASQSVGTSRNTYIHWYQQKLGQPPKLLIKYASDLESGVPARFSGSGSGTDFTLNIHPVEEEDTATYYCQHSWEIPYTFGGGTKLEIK
A) 9.94

Q) Quick one: pEC50 for mouse anti-CTLA4 monoclonal antibody D1H3 (antibody, V domains shown, mouse mAb purified from hybridoma supernatant) VH: QVQLQQPGAELVNPGASVKLSCKASGYTFTSYWLHWVKQRPGRGLEWIGRIDPNRGTIYYNEKFNNKATVTVDKPSNTAYMQLSRLTLEDSAVYYCARGGSNFYAMDYWGQGTSVTVSS VL: DIQMTQSPASLSASVGETVTITCRTSENIYSYLAWYQQKQGESPQLLVYNAKTLAEGVPSRFSGSGSGTQFSLKINSLQPEDFGSYYCQNHDGIPFTFGSGTKLEIK ?
A) 9.69

Q) Entry under review: mouse anti-CTLA4 monoclonal antibody C1D1 (antibody, V domains shown, mouse mAb purified from hybridoma supernatant) VH: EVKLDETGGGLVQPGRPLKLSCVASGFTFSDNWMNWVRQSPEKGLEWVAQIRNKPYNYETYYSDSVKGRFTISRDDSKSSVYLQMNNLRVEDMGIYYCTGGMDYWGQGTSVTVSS VL: DIQMTQSPASLSASVGETVTITCGASEIIYGALNWYQQKQGKSPQLLIYGATNLADGMSSRFSGSGSGRQYSLKISSLHPDDAATYYCQKILSPPPWTFGGGTKLEIK . Reported pEC50?
A) 10.32

Q) Requested read-out: pEC50. Entry: mouse anti-CTLA4 monoclonal antibody D1H4 (antibody, V domains shown, mouse mAb purified from hybridoma supernatant) VH: EVQLQQSGPVLVKPGASVKMSCKASGYTFTDYYMNWVKQSHGKSLEWIGAINPDHGGSSYNQKFKGKATLTVDKSSSTAYMELNSLTSEDSAVYYCARDGSIHYVMDDWGQGTSVTVSS VL: DIVMSQSPSSLTVSAGDKVTMSCKSSQSLLHSGNQKNYLAWYQQKPWQPPKLLIYGASTRESGVPDRFTGSGSGTDFTLTISSVQAEDLAVYYCQNDYGYPYTFGGGTKLEIK
A) 9.97

Q) What measured pEC50 goes with mouse anti-CTLA4 monoclonal antibody D1A7 (antibody, V domains shown, mouse mAb purified from hybridoma supernatant) VH: QVTLKESGPGMLQPSQTLSLTCSFSGFSLSSSKLGVGWIRQPAGKGLEWLAHIWWNDDNYYVPSLKSRLTISKDTSNNQVFLKITNVDAADTATYYCVQVPYYTTQPWFAYWGQGTLVTVSA VL: DIQMTQSPASLSASVGETVTITCRASGNIHNYLAWYLQNQGRSPQLLVYNTETLADGVSSRFSGSGSGTQYFLKISSLQPEDFGTYYCQHLWSTPWTFGGGTKLEIK ?
A) 9.87
